Tested on: DENV-4
Experiment: Inhibition of DENV replication in Huh-7 cells, viral RNA by quantitative real time PCR
Format: cell-based, dengue virus
Conditions: Dengue virus, DENV4, Huh-7, 48 h, DENV-4 strain Venz/JQ, Huh-7 cells, mean ± SD of 3 experiments

- COMPOUND: "CC(C)C(=O)OC[C@@]1(N=[N+]=[N-])O[C@@H](n2ccc(N)nc2=O)[C@H](OC(=O)C(C)C)[C@@H]1OC(=O)C(C)C [Balapiravir]"
  IC50: "5.5 µM"
